Assay target: cholesterol side-chain cleavage cytochrome P450 (mitochondrial) (Bos taurus)
Sequence (P00189 whole entry): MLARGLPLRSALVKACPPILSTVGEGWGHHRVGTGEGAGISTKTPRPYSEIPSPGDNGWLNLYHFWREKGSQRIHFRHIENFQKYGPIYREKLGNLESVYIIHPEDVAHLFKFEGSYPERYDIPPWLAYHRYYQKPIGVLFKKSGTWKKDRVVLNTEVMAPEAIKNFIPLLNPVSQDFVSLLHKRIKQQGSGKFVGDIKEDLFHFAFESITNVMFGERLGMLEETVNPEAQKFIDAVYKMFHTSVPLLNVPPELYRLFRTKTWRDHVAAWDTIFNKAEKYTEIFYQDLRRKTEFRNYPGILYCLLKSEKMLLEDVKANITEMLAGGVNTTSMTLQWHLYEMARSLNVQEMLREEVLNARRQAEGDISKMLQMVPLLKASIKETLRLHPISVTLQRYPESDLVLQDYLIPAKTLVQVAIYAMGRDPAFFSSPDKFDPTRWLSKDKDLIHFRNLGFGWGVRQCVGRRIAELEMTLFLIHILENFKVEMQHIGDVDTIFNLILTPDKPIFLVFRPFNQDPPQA
Assay summary: Percent inhibition of cholesterol side-chain cleavage cytochrome P450 at 10 uM in bovine adrenocortical mitochondrial acetone powder preparations
Assay conditions: cattle
Readout: inhibition at 10 µM (%)

As a guide, the following entries are already answered.
> print(dat)
                                   compound  unit.abbrev  recorded.result
1  CC(C)CCNC(C)[C@H]1CC[C@H]2[C@@H]3CC=C4C[C@@H](O)CC[C@]4(C)[C@H]3CC[C@]12C (stereo not given in full)            %               75
2  CCC(C)CNC(C)[C@H]1CC[C@H]2[C@@H]3CC=C4C[C@@H](OC)CC[C@]4(C)[C@H]3CC[C@]12C (stereo not given in full)            %               89

(I) CO[C@H]1CC[C@@]2(C)C(=CC[C@H]3[C@@H]4CC[C@H](C(C)NCCC(C)C)[C@@]4(C)CC[C@@H]32)C1 (stereo not given in full)
(II) CO[C@H]1CCC2(C)C(=CCC3C2CCC2(C)C3CC[C@@H]2N(C)CCCC(C)C)C1 (stereo not given in full)
Incoming: Which value of inhibition at 10 µM is smaller, the one for I or the one for II ? Give the chosen item's label as your response.
Outgoing: II
(II: 30%, I: 86%)

====

Assay target: cholesterol side-chain cleavage cytochrome P450 (mitochondrial) (Bos taurus)
Sequence (P00189 whole entry): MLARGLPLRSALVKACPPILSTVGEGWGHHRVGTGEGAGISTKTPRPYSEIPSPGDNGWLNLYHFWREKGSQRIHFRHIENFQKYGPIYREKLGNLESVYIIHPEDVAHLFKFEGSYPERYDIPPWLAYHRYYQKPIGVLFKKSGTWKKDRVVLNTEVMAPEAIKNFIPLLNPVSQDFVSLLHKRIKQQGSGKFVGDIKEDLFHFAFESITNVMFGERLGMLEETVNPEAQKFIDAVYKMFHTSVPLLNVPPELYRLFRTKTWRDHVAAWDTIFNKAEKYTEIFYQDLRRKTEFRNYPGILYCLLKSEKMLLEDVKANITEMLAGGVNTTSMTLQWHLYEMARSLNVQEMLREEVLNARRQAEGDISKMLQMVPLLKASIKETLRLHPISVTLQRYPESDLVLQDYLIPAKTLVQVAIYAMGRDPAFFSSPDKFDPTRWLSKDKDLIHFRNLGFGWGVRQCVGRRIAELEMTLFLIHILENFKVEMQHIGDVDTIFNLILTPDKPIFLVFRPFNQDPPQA
Assay summary: Percent inhibition of cholesterol side-chain cleavage cytochrome P450 at 100 uM in bovine adrenocortical mitochondrial acetone powder preparations
Assay conditions: cattle
Readout: inhibition at 100 µM (%)

Below, 3 compounds whose answers are already recorded.
> print(dat)
                                   compound  recorded.result
1  CO[C@H]1CC[C@@]2(C)C(CC[C@H]3[C@@H]4CC[C@H](C(C)NCCC(C)C)[C@@]4(C)CC[C@@H]32)C1 (stereo partly specified)               21
2  CCC(C)CNC(C)[C@H]1CC[C@H]2[C@@H]3CC=C4C[C@@H](OC)CC[C@]4(C)[C@H]3CC[C@]12C (stereo partly specified)              100
3  CC(C)CCNC(C)[C@H]1CC[C@H]2[C@@H]3CCC4CC(=O)CC[C@]4(C)[C@H]3CC[C@]12C (stereo partly specified)                3

(a) CC(C)CCNC(C)[C@H]1CC[C@H]2[C@@H]3CC=C4C[C@@H](O)CC[C@]4(C)[C@H]3CC[C@]12C (stereo partly specified)
(b) CC(C)CCCN(C)[C@H]1CC[C@H]2[C@@H]3CCC4C[C@@H](O)CC[C@]4(C)[C@H]3CC[C@]12C (stereo partly specified)
(c) CO[C@H]1CCC2(C)C(CC[C@@H]3[C@@H]2CCC2(C)[C@@H](N(C)CCCC(C)C)CC[C@@H]32)C1 (stereo partly specified)
(d) CO[C@@H]1CC[C@@]2(C)C(CC[C@H]3[C@@H]4CC[C@H](N(C)CCCC(C)C)[C@@]4(C)CC[C@@H]32)C1 (stereo partly specified)
Incoming: Arrange these compounds by their inhibition at 100 µM, starting with the largest number. Write the labels in rank order as requested.
Outgoing: a, b, c, d
